- target: SARS2 M^pro (Severe acute respiratory syndrome coronavirus 2, UniProt P0DTD1, P3395H)
- Format: biochemical, SARS-CoV-2
measurement name: % inhibition (20 µM) biochemical (%)
Numbers only, in %.

line notation: CC(C)c1cc(NC(=O)CCl)cc(C(C)C)c1O
target: SARS2 M^pro (Severe acute respiratory syndrome coronavirus 2, UniProt P0DTD1, P3395H)
unit spec: %
% inhibition (20 µM) biochemical: 80

Consider the following items and state reported % inhibition (20 µM) biochemical for each.
1. COc1ccc2c(=O)cc(-c3ccc4c(c3)OCCO4)oc2c1
2. Cc1ccc2nc(NC(=O)c3ccc(S(C)(=O)=O)c([N+](=O)[O-])c3)sc2c1
3. Cc1ccc(-c2cn3ccc4ccccc4c3n2)cc1

1: 100; 2: 64; 3: 8

* * *

- target: SARS2 M^pro (Severe acute respiratory syndrome coronavirus 2, UniProt P0DTD1, P3395H)
- Type: biochemical, SARS-CoV-2
I'd be grateful if you could share measured % inhibition (20 µM) biochemical for these entries.

compound: Cc1cc(Br)cc2c1N(C)C(=O)C2(O)CC(=O)c1ccc(Cl)cc1 (centres unmarked)
test value: 4.25%
//
compound: COCCNc1nc2cc(C)ccc2[nH]1 [MWAC-0001822, COCCNc1nc2cc(C)ccc2[nH]1]
test value: 3%
//
compound: Cc1ccc2nc(-c3ccc(SCC(=O)Nc4nc(C)cs4)nc3)[nH]c2c1
test value: 2.56%
//
compound: CCOc1ccccc1C1Nc2ccccc2NC2=C1C(=O)CC(c1ccc3c(c1)OCO3)C2 (centres unmarked)
test value: 0%

Consider the following items and state reported % inhibition (20 µM) biochemical for each.
1. O=C(CC1(O)C(=O)Nc2ccc(I)cc21)c1cccs1 (centres unmarked)
2. CCCN1C(=O)C2(c3cc(C)ccc31)N1CC3(C)CN2CC(C)(C1)C3=O (centres unmarked)
3. COc1ccc(OC)c(NC(=O)CSc2nc3cc4c(cc3cc2C#N)OCCO4)c1

1. 6.56%
2. 7%
3. 5.66%

Recorded % inhibition (20 µM) biochemical for CC1=CC(C)(C)N2C(=O)C3(Nc4ccccc4CO3)c3cc(C)cc1c32 (centres unmarked) , please?
0.845%

* * *

I'd be grateful if you could share measured % inhibition (20 µM) biochemical for these entries.
- target: SARS2 M^pro (Severe acute respiratory syndrome coronavirus 2, UniProt P0DTD1, P3395H)
- Assay type: biochemical, SARS-CoV-2
Numbers only, in %.

Record excerpt, results attached:
compound: Cc1ccc(COc2ccc([N+](=O)[O-])cc2C=O)cc1 [MWAC-0001790, Cc1ccc(COc2ccc(cc2C=O)[N+](=O)[O-])cc1]
% inhibition (20 µM) biochemical [%]: 7
--
compound: O=C(Nc1nccs1)c1ccc(F)cc1[N+](=O)[O-] [MWAC-0001876, [O-][N+](=O)c1cc(F)ccc1C(=O)Nc2nccs2]
% inhibition (20 µM) biochemical [%]: 0
--
compound: O=C(C[S+]([O-])c1ccc(C(F)(F)F)cc1[N+](=O)[O-])OCc1ccccc1 (stereo not shown)
% inhibition (20 µM) biochemical [%]: 4

Recorded % inhibition (20 µM) biochemical for O=C1N(Cc2ccccc2)c2ccccc2C12NNc1ccccc1O2 (stereo not shown) , please?
2.76

* * *

- target: SARS2 M^pro (Severe acute respiratory syndrome coronavirus 2, UniProt P0DTD1, P3395H)
- Assay type: biochemical, SARS-CoV-2
# cutoff 7% applies to % inhibition (20 µM) biochemical; >= gives Y, < gives N

Reference set (2 entries):
compound: C=CCN1C(=O)C(O)(CC(=O)c2cccc(OC)c2)c2cc(Br)ccc21 (stereo not shown) [MWAC-0001778]
target: SARS2 M^pro (Severe acute respiratory syndrome coronavirus 2, UniProt P0DTD1, P3395H)
class name: N
--
compound: Nc1ncnc(N)c1N=Nc1ccccc1 [MWAC-0001835, Nc1ncnc(N)c1N=Nc2ccccc2]
target: SARS2 M^pro (Severe acute respiratory syndrome coronavirus 2, UniProt P0DTD1, P3395H)
class name: N

Is the recorded value of % inhibition (20 µM) biochemical equal to or greater than 7% for this compound? Nc1c(C(=O)c2ccccc2)sc2nc3c(cc12)CCC3 [MWAC-0001815, Nc1c(sc2nc3CCCc3cc12)C(=O)c4ccccc4]
Y
